# Assay Procedure: recombinant UMI read abundance after kanamycin selection (control-corrected) (log10(CPM+1)); higher = more efficient recombination; extreme values may be limits of the assay; sequences stand for … in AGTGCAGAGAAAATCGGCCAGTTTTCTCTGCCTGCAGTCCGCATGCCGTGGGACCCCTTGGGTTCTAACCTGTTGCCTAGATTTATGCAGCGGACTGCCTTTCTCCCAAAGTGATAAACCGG…AGGTTGGTTTCACT; site = the 11-nt donor;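 also: IS621 bridge recombinase in Escherichia coli cells against a fixed T5 target plasmid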
Catalogue of recombinant UMI read abundance (log10) readings, one per entry.

Guide cases for recombinant UMI read abundance (log10), answers given:
Seq Text	recombinant UMI read abundance (log10)
CGATTCCCATGGACCGGTTTTCCCGGTAATCCGTATTTGCT (site CGATTCCCTAG)	0.704
GTAGCCGCATGGACCGGTTTTCCCGGTAATCCGTATTTGCG (site GTAGACGCTCG)	0.446
CCCATTTCATGGACCGGTTTTCCCGGTAATCCGTATTTGTC (site CCCATGTCTGA)	0
CGCTAGACATGGACCGGTTTTCCCGGTAATCCGTATTTGAG (site CGGTAGACTCT)	0.181

Entry TTTGCTGCATGGACCGGTTTTCCCGGTAATCCGTATTTGTG (site TTTGCTGCTCA) ; recombinant UMI read abundance (log10) = 0.0238

Entry CACCGTCCATGGACCGGTTTTCCCGGTAATCCGTATTTGAT (site CACCGTCCTAT) ; recombinant UMI read abundance (log10) = 1.03

Entry CAATTCCCATGGACCGGTTTTCCCGGTAATCCGTATTTGAT (site CAATTCCCTAC) ; recombinant UMI read abundance (log10) = 0

Entry GCTACAACATGGACCGGTTTTCCCGGTAATCCGTATTTGAG (site GCTACAACTCT) ; recombinant UMI read abundance (log10) = 0.921

Entry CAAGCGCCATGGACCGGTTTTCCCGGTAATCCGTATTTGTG (site CAAGCGACTCA) ; recombinant UMI read abundance (log10) = 0.0185

* * *

# Assay Procedure: recombinant UMI read abundance after kanamycin selection (control-corrected) (log10(CPM+1)); higher = more efficient recombination; extreme values may be limits of the assay; sequences stand for … in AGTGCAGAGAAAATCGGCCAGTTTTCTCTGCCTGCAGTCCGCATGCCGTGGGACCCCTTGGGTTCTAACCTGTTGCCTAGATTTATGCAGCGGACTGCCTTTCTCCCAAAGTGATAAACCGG…AGGTTGGTTTCACT; site = the 11-nt donor
Class assignment keyed on recombinant UMI read abundance (log10), ranges low class = under 0.2, middle class = from 0.2 up to 2, high class = 2 and over

Here are 8 sequences together with their reported answers.
Seq Text	Assigned Category
TTGAACACATGGACCGGTTTTCCCGGTAATCCGTATTTGAC (site TTGAACACTGT)	middle class
ACAGGAACATGGACCGGTTTTCCCGGTAATCCGTATTTGTC (site ACATGAACTGA)	middle class
AGAAATGCATGGACCGGTTTTCCCGGTAATCCGTATTTGCT (site AGAAATGCTAG)	high class
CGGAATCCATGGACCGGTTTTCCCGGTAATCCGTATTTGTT (site CCGAATTCTAA)	low class
CGTGTATCATGGACCGGTTTTCCCGGTAATCCGTATTTGAC (site CGTGTATCTGT)	middle class
CAAGTGCCATGGACCGGTTTTCCCGGTAATCCGTATTTGTG (site CAAGGGCCTCA)	middle class
GAGCTCACATGGACCGGTTTTCCCGGTAATCCGTATTTGGT (site GAGCTCACTAT)	middle class
GCTGGCGCATGGACCGGTTTTCCCGGTAATCCGTATTTGTA (site GCTGGCGCTTA)	middle class

Which category fits this record: ATCAAGGCATGGACCGGTTTTCCCGGTAATCCGTATTTGCG (site ATCAAGGCTCG)
middle class

Which category fits this record: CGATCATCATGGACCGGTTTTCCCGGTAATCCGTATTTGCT (site CGCTCAACTAG)
low class

Which category fits this record: GAGTGGACATGGACCGGTTTTCCCGGTAATCCGTATTTGAC (site GACTGGACTGT)
middle class

Which category fits this record: AATGAGACATGGACCGGTTTTCCCGGTAATCCGTATTTGGT (site AATGAGACTAC)
middle class

meta.source: the supplement of paper PMC11208160
